Assayed Target: T1, glutathione S-transferase (UniProt P08515 1-218 = GST)
T1 construct: Expressed in E. coli, purified on GSH resin; also called GST
T1 sequence (P08515 whole entry): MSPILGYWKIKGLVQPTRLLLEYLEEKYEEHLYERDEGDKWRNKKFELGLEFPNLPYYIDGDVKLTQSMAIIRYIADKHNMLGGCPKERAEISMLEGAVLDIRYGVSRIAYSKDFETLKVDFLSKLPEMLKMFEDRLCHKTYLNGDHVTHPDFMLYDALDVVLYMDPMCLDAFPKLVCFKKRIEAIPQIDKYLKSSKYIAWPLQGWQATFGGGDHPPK
Test Method Notes: indirect ELISA, GST coated;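 note: nanobody dilution series starting at 10 µM binding plate-bound antigen, HRP anti-His or anti-T7 tag detection, TMB absorbance at 450 nm, logIC50 from four-parameter logistic fit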
Criterion: ELISA affinity (LogIC50 (oD450nm)) meeting or surpassing 7. Met: condition met. Not met: condition not met.

Binder	Discrete Label
G7 (VHH) VHH: QVQLVESGGGLVQPGDSLRLSCAVSGQYVNMAAMGWFRQAPGKEREFVAGISWSDDTDIADSVKGRFTISRDHGKNTVDLQMNSLKPEDTGVYLCAGRFRRLAKDFGEYDYWGQGTQVTVSS	condition not met
G95 (VHH, also called G95(C2)) VHH: HVQLVESGGGLVQAGGSLRLSCAASGRTFSSYAMAWFRQAVGKEREFVAAVSRSGTNLYYADSVKGRFTISRDTAKNTMYLQMNSLKPEDTALYYCAAGEALRWGIGQQPRSEFFDYWGQGTQVTVSS	condition not met
G17 (VHH) VHH: EVQLVESGGGLVQAGGSLRLSCAASGVTISYWVMGWFRQAPGKEREFVARISWGGERTYYADSVKGRFAISRDNAKNTVYLQMNSLNAEDTAVYYCAADRTGWGHSNSRSEYDYWGQGTQVTVSS	condition met
G83 (VHH) VHH: QVQLVESGGGLVQAGGSLRLSCAASRRTFSIYNMGWFRQAPGKEREFVATITRYGDRTYTADSVKGRFTISSDQAKNTVYLQMNSLNPHDTAVYYCAADSAYSGPDFKHYDYWGQGTQVTVSS	condition met
G82 (VHH) VHH: HVQLVESGGGLVQAGGSLRLSCAASGKIFSLSTMGWYRQAPGKQRELVAALTSGGSTNYADSVKGRFTISRDNAKYTTYLQMNSLKPEDTAVYYCNVRYYSGYDGYESNSWGQGTQVTVSS	condition met
